target: SMARCA2 (Homo sapiens); assay: SMARCA2 Western blot degradation in MV4-11 cells; type: cell-based; parameters: SMARCA2/SMARCA4 protein degradation selectivity in MV4-11 cells; endogenous in cells; host or cells: MV4-11; details: MV4-11 cells, 24 h
REPORTED_PROPERTY: SMARCA2 MSD MV411 degradation 24 h: average Dmax %

[
  {
    "MOLECULE": "C#Cc1ccc(CNC(=O)[C@@H]2C[C@@H](O)CN2C(=O)[C@@H](NC(=O)[C@H]2CCC3(CC2)C[C@H](N2CCC(c4cnc(N5CCN6c7cc(-c8ccccc8O)nnc7NC[C@H]6C5)nc4)CC2)C3)C(C)(C)C)c(OCCCOC)c1 (single isomer, unassigned)",
    "EXPERIMENTAL_RESULT": "A (A (>90% degradation))"
  },
  {
    "MOLECULE": "C[C@H](NC(=O)[C@@H]1C[C@@H](O)CN1C(=O)[C@@H](NC(=O)[C@H]1CCC2(CC1)C[C@H](N1CCC(c3cnc(N4CCN5c6cc(-c7ccccc7O)nnc6NC[C@H]5C4)nc3)CC1)C2)C(C)(C)C)c1ccc(-c2ccnn2C)cc1 (single isomer, unassigned)",
    "EXPERIMENTAL_RESULT": "A (A (>90% degradation))"
  }
]

====

biological target: SMARCA2 (Homo sapiens, UniProt P51531); assay: SMARCA2 Western blot degradation in MV4-11 cells; format: cell-based; set-up: SMARCA2/SMARCA4 protein degradation selectivity in MV4-11 cells; endogenous in cells; host or cells: MV4-11; conditions: MV4-11 cells, 24 h
Sequence (P51531 whole entry): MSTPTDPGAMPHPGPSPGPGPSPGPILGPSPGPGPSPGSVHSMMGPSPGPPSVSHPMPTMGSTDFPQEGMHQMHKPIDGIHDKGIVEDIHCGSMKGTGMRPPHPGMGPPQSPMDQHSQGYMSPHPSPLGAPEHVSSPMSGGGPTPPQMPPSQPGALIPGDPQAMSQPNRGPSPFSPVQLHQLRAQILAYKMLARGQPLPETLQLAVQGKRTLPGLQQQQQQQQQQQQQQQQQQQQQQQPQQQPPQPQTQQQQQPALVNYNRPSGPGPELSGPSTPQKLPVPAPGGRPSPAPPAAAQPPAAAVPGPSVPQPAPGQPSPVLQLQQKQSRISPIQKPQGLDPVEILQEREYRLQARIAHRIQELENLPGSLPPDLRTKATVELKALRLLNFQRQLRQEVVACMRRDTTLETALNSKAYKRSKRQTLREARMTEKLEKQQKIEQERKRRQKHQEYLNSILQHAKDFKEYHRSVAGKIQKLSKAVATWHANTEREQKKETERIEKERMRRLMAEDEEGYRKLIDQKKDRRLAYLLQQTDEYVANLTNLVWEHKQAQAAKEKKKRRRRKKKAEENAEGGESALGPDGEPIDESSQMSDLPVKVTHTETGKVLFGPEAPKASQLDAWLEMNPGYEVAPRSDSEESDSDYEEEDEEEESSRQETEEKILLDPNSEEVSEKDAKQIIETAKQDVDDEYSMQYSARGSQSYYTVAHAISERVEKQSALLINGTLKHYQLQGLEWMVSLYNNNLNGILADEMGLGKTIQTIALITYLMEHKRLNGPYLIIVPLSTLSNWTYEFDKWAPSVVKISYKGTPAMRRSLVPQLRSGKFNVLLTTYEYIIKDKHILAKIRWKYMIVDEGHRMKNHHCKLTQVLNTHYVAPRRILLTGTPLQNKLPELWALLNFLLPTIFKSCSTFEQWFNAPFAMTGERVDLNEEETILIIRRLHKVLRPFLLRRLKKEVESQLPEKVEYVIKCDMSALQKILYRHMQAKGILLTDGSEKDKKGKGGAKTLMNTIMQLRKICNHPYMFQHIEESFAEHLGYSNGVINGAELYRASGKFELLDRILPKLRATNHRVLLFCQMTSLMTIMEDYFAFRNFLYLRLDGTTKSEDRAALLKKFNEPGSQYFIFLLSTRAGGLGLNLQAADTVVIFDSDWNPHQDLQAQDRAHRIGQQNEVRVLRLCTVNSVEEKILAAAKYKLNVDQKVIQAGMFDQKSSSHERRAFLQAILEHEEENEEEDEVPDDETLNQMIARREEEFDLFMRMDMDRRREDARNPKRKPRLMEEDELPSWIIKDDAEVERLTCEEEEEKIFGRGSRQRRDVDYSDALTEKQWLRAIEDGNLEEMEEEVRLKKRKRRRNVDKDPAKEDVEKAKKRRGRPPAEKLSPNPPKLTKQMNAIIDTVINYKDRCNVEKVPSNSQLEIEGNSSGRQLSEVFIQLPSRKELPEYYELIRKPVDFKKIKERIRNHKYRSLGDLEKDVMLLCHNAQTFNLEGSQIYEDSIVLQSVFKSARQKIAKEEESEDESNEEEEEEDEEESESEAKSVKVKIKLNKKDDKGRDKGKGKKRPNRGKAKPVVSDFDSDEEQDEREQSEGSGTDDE
REPORTED_PROPERTY: SMARCA2 MSD MV411 degradation 24 h: average Dmax %

[
  {
    "COMPOUND": "Cc1ncsc1-c1ccc(CNC(=O)[C@@H]2C[C@@H](O)CN2C(=O)[C@@H](NC(=O)[C@H]2CC3(CC[C@H](N4CCN(c5ccnc(N6CCc7[nH]c8nnc(-c9ccccc9O)cc8c7[C@H]6C)n5)CC4)CC3)C2)C(C)(C)C)cc1 (single isomer, unassigned)",
    "EXPERIMENTAL_RESULT": "A (A (>90% degradation))"
  },
  {
    "COMPOUND": "Cc1ncsc1-c1ccc(CNC(=O)[C@@H]2C[C@@H](O)CN2C(=O)[C@@H](NC(=O)[C@H]2CC3(C2)C[C@H](N2CCC(c4ccnc(N5CCN6c7cc(-c8ccccc8O)nnc7NC[C@H]6C5)n4)CC2)C3)C(C)(C)C)cc1 (single isomer, unassigned)",
    "EXPERIMENTAL_RESULT": "A (A (>90% degradation))"
  }
]

====

target: SMARCA2 (Homo sapiens); test: MSD SMARCA2 degradation in A549 cell line; assay type: cell-based; details: A549 cells
REPORTED_PROPERTY: SMARCA2 MSD A549 degradation 24 h: Average Dmax %

// below: answered compounds
[
  {
    "COMPOUND": "C#Cc1ccc(C2(NC(=O)[C@@H]3C[C@@H](O)CN3C(=O)[C@@H](NC(=O)[C@H]3CC4(C3)C[C@H](N3CCC(N5CCC(N6CCN7c8cc(-c9ccccc9O)nnc8NC[C@H]7C6)CC5)CC3)C4)C(C)(C)C)CC2)cc1 (single isomer, unassigned)",
    "EXPERIMENTAL_RESULT": "A (A (>90% degradation))"
  },
  {
    "COMPOUND": "C#Cc1ccc(CNC(=O)[C@@H]2C[C@@H](O)CN2C(=O)[C@@H](NC(=O)[C@H]2CCC3(CC2)C[C@H](N2CCC(N4CCC(N5CCN6c7cc(-c8ccccc8O)nnc7NC[C@H]6C5)CC4)CC2)C3)C(C)(C)C)c(OC)c1 (stereo partly drawn)",
    "EXPERIMENTAL_RESULT": "A (A (>90% degradation))"
  },
  {
    "COMPOUND": "C#Cc1ccc(CNC(=O)[C@@H]2C[C@@H](O)CN2C(=O)[C@@H](NC(=O)[C@H]2CCC3(CC2)C[C@H](N2CCC(c4cnc(N5CCN6c7cc(-c8cccc(F)c8O)nnc7NC[C@H]6C5)nc4)CC2)C3)C(C)(C)C)cc1 (single isomer, unassigned)",
    "EXPERIMENTAL_RESULT": "A (A (>90% degradation))"
  },
  {
    "COMPOUND": "Cc1cc(Cl)ccc1C#CCNC(=O)[C@@H]1C[C@@H](O)CN1C(=O)[C@@H](NC(=O)[C@H]1CCC2(CC1)C[C@H](N1CCC(c3cnc(N4CCN5c6cc(-c7ccccc7O)nnc6NC[C@H]5C4)nc3)CC1)C2)C(C)(C)C (single isomer, unassigned) [I-104]",
    "EXPERIMENTAL_RESULT": "A (A (>90% degradation))"
  },
  {
    "COMPOUND": "C#Cc1ccc(CNC(=O)[C@@H]2C[C@@H](O)CN2C(=O)[C@@H](NC(=O)[C@H]2CC3(C2)C[C@H](N2CCC(N4CCC(N5CCN6c7cc(-c8ccccc8O)nnc7NC[C@H]6C5)CC4)CC2)C3)C(C)(C)C)c(Cl)c1 (single isomer, unassigned)",
    "EXPERIMENTAL_RESULT": "A (A (>90% degradation))"
  }
]

// query Dear colleague, I am looking for the recorded SMARCA2 MSD A549 degradation 24 h: Average Dmax % of the following compound: C#Cc1ccc([C@H](C)NC(=O)[C@@H]2C[C@@H](O)CN2C(=O)[C@@H](NC(=O)[C@H]2CCC3(CC2)C[C@H](N2CCN(c4cnc(N5CCN6c7cc(-c8ccccc8O)nnc7NC[C@H]6C5)nc4)CC2)C3)C(C)(C)C)cc1 (single isomer, unassigned)
// result A (A (>90% degradation))

// query Next: C#Cc1ccc(CNC(=O)[C@@H]2C[C@@H](O)CN2C(=O)[C@@H](NC(=O)[C@H]2CCC3(CC2)C[C@H](N2CCC(c4cnc(N5CCN6c7cc(-c8cccc(Cl)c8O)nnc7NC[C@@H]6C5)nc4)CC2)C3)C(C)(C)C)cc1 (single isomer, unassigned)
// result A (A (>90% degradation))

// query Next: CC#Cc1ccc(CNC(=O)[C@@H]2C[C@@H](O)CN2C(=O)[C@@H](NC(=O)[C@H]2CCC3(CC2)C[C@H](N2CCC(c4cnc(N5CCN6c7cc(-c8ccccc8O)nnc7NC[C@H]6C5)nc4)CC2)C3)C(C)(C)C)cc1 (single isomer, unassigned)
// result A (A (>90% degradation))

// query Next: Cc1ncsc1-c1ccc(CNC(=O)[C@@H]2C[C@@H](O)CN2C(=O)[C@@H](NC(=O)[C@H]2CC3(C2)C[C@H](N2CCN(c4cnc(N5CCN6c7cc(-c8ccccc8O)nnc7NC[C@H]6C5)nc4)CC2)C3)C(C)(C)C)cc1 (stereo partly drawn) [I-18]
// result D (D (<50% degradation))

====

Molecular target: SMARCA2 (Homo sapiens, UniProt P51531)
Assay: MSD SMARCA2 degradation in A549 cell line
Type: cell-based
Conditions: A549, A549 cells, 24 h
Method: Example 10. MSD SMARCA2 Degradation in A549 Cell Line Cells were seeded into 96-well plates (A549 cells: 2×10^4 cells/well/100 ul media) and incubated overnight. […] The MSD plate was washed three times with 150 uL/well of TBST and 150 ul/well of 2× MSD reading buffer diluted from 4× (MSD, R92TC-2) with water was added. Lastly, the MSD instrument was read. […]
REPORTED_PROPERTY: Dmax

// below: answered compounds
[
  {
    "COMPOUND": "Cc1ncsc1-c1ccc([C@H](C)NC(=O)[C@@H]2C[C@@H](O)CN2C(=O)[C@@H](NC(=O)Cc2ccc(CCCC(=O)N3CCN4c5cc(-c6ccccc6O)nnc5NC[C@H]4C3)cc2)C(C)(C)C)cc1 (single isomer, unassigned) [I-83]",
    "EXPERIMENTAL_RESULT": "70 to 90%"
  },
  {
    "COMPOUND": "C#Cc1ccc(CNC(=O)[C@@H]2C[C@@H](O)CN2C(=O)[C@@H](NC(=O)N2CC3(CC(N4CCC(N5CC6(CC(N7CCc8[nH]c9nnc(-c%10ccccc%10O)cc9c8[C@H]7C)C6)C5)CC4)C3)C2)C(C)(C)C)cc1 [I-207]",
    "EXPERIMENTAL_RESULT": "> 90%"
  },
  {
    "COMPOUND": "C#Cc1ccc([C@H](C)NC(=O)[C@@H]2C[C@@H](O)CN2C(=O)[C@@H](NC(=O)[C@H]2CCC3(CC2)C[C@H](N2CCN(c4cnc(N5CCN6c7cc(-c8ccccc8O)nnc7NC[C@H]6C5)nc4)CC2)C3)C(C)(C)C)cc1 (single isomer, unassigned) [I-233]",
    "EXPERIMENTAL_RESULT": "> 90%"
  }
]

# input for lookup
// query Dear colleague, I am looking for the recorded Dmax of the following compound: C#Cc1ccc(CNC(=O)[C@@H]2C[C@@H](O)CN2C(=O)[C@H](NC(=O)[C@H]2CCC3(CC2)C[C@H](N2CCC(c4cnc(N5CCN6c7cc(-c8ccccc8O)nnc7NC[C@H]6C5)nc4)CC2)C3)C(C)(C)CCO)cc1 (single isomer, unassigned) [I-248]
// result < 50%
